- tested system: recombinant human GBA (beta-glucocerebrosidase) (Homo sapiens, UniProt P04062)
- Sequence (P04062 40-536): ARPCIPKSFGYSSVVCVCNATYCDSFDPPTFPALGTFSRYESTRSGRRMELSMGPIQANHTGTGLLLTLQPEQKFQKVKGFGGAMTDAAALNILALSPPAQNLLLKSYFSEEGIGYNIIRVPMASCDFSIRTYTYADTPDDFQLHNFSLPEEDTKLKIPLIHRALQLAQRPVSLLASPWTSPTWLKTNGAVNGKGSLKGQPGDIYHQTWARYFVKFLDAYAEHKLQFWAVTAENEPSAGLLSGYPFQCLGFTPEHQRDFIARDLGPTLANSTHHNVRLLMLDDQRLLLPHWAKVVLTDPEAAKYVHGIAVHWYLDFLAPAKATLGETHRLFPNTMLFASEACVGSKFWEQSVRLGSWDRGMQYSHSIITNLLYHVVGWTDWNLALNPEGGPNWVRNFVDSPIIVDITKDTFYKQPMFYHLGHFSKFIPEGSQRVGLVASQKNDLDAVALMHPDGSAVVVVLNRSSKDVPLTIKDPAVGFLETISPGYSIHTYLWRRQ
- measurement protocol: Beta-glucocerebrosidase (GBA, glucosylceramidase) assay (4-methylumbelliferyl-beta-D-pyranoside substrate, fluorescence)
assay readout: log10 IC50 (log10 of the value in µM)
Scale type: logarithmic (base 10). Underlying IC50 unit: µM.

Inquiry: Notebook entry, recombinant human GBA (beta-glucocerebrosidase) (Homo sapiens, UniProt P04062) assay: log10 IC50 of O=[N+]([O-])c1cc(Br)ccc1NCc1cccc(CN2C[C@H](O)[C@@H](O)[C@H](O)[C@H]2CO)c1 [Compound 1029] = ?
Reply text: 1.72

Inquiry: Now consider OC[C@@H]1[C@@H](O)[C@H](O)[C@@H](O)CN1CCc1cn(CCNc2ccccc2)c2ccccc12 [Compound 1076] .
Reply text: 0.89

Inquiry: Can you check N#Cc1cc(NCc2cccc(CN3C[C@H](O)[C@@H](O)[C@H](O)[C@H]3CO)c2)cc(-c2cccnn2)c1 [Compound 1046] next?
Reply text: 1.94

Inquiry: Okay, and O=[N+]([O-])c1cc(-c2ncco2)ccc1NCCc1ccc(CCN2C[C@H](O)[C@@H](O)[C@H](O)[C@H]2CO)cc1 [Compound 1112] ?
Reply text: 0.70
